Values compiled from ChEMBL document CHEMBL4765245.

Collected IC50 values appear next to each entry.
- Test system: rhinovirus B14
- Assay Summary: Antiviral activity against Rhinovirus B14 infected in human HeLa cell line assessed as inhibition of virus-induced cytopathic effect measured after 72 hrs by crystal violet uptake assay
- Assay type: functional, organism-based
- Protocol Conditions: Rhinovirus B, HeLa, 72 h; read-out: IC50
Recorded Metric: IC50 (nM)

In [3]: df
Out[3]:
                                smiles_code  recorded_metric  observed_measurement
0  CCOC(=O)c1cc(CCCOc2ccc(-c3noc(C(F)(F)F)n3)cc2[N+](=O)[O-])on1             IC50                  2930
1  CCOC(=O)c1cc(CCCOc2ccc(-c3noc(C(F)(F)F)n3)cc2C)on1             IC50                   520
2  CCOC(=O)c1cc(CCCOc2ccc(-c3noc(C(F)(F)F)n3)cc2OC)on1             IC50                   660
3  CN(C)C(=O)c1cc(CCCOc2ccc(-c3noc(C(F)(F)F)n3)cc2F)on1             IC50                    50
4  CN(C)C(=O)c1cc(CCCOc2ccc(-c3noc(C(F)(F)F)n3)cc2)on1             IC50                    40
5  COc1cc(-c2noc(C(F)(F)F)n2)cc([N+](=O)[O-])c1OCCCc1cc(C(=O)N(C)C)no1             IC50                   200
6  CCOC(=O)c1cc(CCCOc2ccc(-c3noc(C(F)(F)F)n3)cc2F)on1             IC50                   500
7  COc1ccc(-c2cc(CCCOc3c(C)cc(-c4noc(C(F)(F)F)n4)cc3C)on2)cc1OC             IC50                  2780
8  CN(C)C(=O)c1cc(CCCOc2ccc(-c3noc(C(F)(F)F)n3)cn2)on1             IC50                   120
